System: D. immitis L4 larvae
Assay: Dirofilaria immitis, L4 Stage (DiL4) In Vitro Assay
Type: cell-based
Details: larval stage selectivity, ratio of DiMf MED to DiL4 MED

- smilesCode: "CC(C)C[C@H]1C(=O)O[C@H](Cc2ccc(Cc3ccoc3)cc2)C(=O)N(C)[C@@H](CC(C)C)C(=O)O[C@H](C)C(=O)N(C)[C@@H](CC(C)C)C(=O)O[C@H](Cc2ccc(Cc3ccoc3)cc2)C(=O)N(C)[C@@H](CC(C)C)C(=O)O[C@H](C)C(=O)N1C"
  testedOn: "D. immitis L4 larvae"
  qualifierOperator: ">"
  DiMf/DiL4: 30
- smilesCode: "CC(C)C[C@H]1C(=O)O[C@H](Cc2ccc([C@@H](c3ccc(OC(F)(F)F)cc3)N3CCOCC3)cc2)C(=O)N(C)[C@@H](CC(C)C)C(=O)O[C@H](C)C(=O)N(C)[C@@H](CC(C)C)C(=O)O[C@H](Cc2ccccc2)C(=O)N(C)[C@@H](CC(C)C)C(=O)O[C@@H](C)C(=O)N1C"
  testedOn: "D. immitis L4 larvae"
  qualifierOperator: "="
  DiMf/DiL4: 1000
- smilesCode: "CC(C)C[C@H]1C(=O)O[C@H](Cc2ccc(Cc3ccnc(N4CCOCC4)c3)cc2)C(=O)N(C)[C@@H](CC(C)C)C(=O)O[C@H](C)C(=O)N(C)[C@@H](CC(C)C)C(=O)O[C@H](Cc2ccc(Cc3ccnc(N4CCOCC4)c3)cc2)C(=O)N(C)[C@@H](CC(C)C)C(=O)O[C@H](C)C(=O)N1C"
  testedOn: "D. immitis L4 larvae"
  qualifierOperator: "="
  DiMf/DiL4: 3.3
